The values you see were collected from patent US8148423B2.

# QY (quantum yield) per record follows
Test: Fluorescence spectra and quantum yield of rhodol fluorophores, rhodamine 6G as reference
Type: physicochemical
Details: 50 mM aqueous phosphate buffer at pH about 8.0; relative to rhodamine 6G (QY = 0.76 in water); N.D. = no fluorescence detected
Protocol: The photophysical properties of the rhodol fluorophores in Table 1 were measured according to the procedures disclosed herein and are summarized in Table 1. […] Absorbance solutions were prepared by further diluting the stock solution with 50 mM of potassium phosphate buffer at pH 8.0. Absorption spectra were recorded on a CARY 50 Bio UV-Visible spectrophotometer (obtainable from Varian Incorporation, Palo Alto, Calif.) under the control of a PC running the manufacturer supplied software package. […]

[[record]]
compound = "COc1ccc2c(c1)Oc1cc(N)ccc1C21OC(=O)c2ccccc21 (stereo not drawn)"
obsvalue = 0.85


query: Entry under review: O=C1OC2(c3ccc(O)cc3Oc3cc(NCc4ccccc4)ccc32)c2ccccc21 (stereo not drawn) . Reported QY (quantum yield)?
result: 0.95

query: Then CCCCN(CCCC)c1ccc2c(c1)Oc1cc(O)ccc1C21OC(=O)c2ccccc21 (stereo not drawn) ?
result: 0.12

query: Then CN(C)c1ccc2c(c1)Oc1cc(O)ccc1C21OC(=O)c2ccccc21 (stereo not drawn) ?
result: 0.20
